- tested_on: Torsin-1A-interacting protein 2 (Homo sapiens) (UniProt Q8NFQ8)
- Sequence (Q8NFQ8 whole entry, looked up): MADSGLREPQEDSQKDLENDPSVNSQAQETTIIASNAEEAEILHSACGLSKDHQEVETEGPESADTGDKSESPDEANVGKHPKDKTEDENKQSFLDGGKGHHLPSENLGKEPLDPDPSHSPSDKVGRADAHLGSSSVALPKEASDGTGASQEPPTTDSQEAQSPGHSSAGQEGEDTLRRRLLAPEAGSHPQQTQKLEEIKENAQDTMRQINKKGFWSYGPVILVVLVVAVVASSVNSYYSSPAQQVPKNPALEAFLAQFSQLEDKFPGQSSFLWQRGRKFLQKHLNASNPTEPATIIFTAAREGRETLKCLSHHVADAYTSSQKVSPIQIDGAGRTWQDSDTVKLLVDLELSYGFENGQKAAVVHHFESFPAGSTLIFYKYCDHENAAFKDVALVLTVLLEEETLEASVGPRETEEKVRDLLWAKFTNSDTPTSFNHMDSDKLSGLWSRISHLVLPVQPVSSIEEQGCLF
- test: LULL1 binders on small-molecule microarray, primary screen, cell lysate, human LULL1 lysate, 635/667 nm fluorescence (AID 1092);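 note: probe is lysate of COS7 cells overexpressing human LULL1; score merges per-feature 667 nm fluorescence with signal-to-noise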
- experimental_setup: hLULL1 lysate binding, 635 nm fluorescence, higher = more signal
# composite z-score listing for each entry below
Field format: numeric only.

Solved entries:
**Query** Could you please provide reported composite z-score for CC(C)[Si](C#Cc1ccccc1)(O[C@H](c1ccccc1)c1cn(Cc2ccccc2)nn1)C(C)C ? Thanks!
**Result** 2.04

**Query** Please indicate composite z-score recorded for O=C(O)C1=CC[C@H]2C(=O)N(c3ccccc3)C(=O)[C@@H]12
**Result** 2.5

**Query** Please give measured composite z-score of the following entry: O=C1O[C@H](c2ccccc2)[C@H](c2ccccc2)N2[C@H]1[C@@H](C(=O)N1CCN(c3ncccn3)CC1)[C@]1(C(=O)Nc3ccc(C#CC4(O)CCCCCC4)cc31)[C@H]2c1ccc(O)cc1
**Result** 2.57

**Query** Supply composite z-score value. Item: CCOC(=O)C1=C[C@@H](C(C)(C)C)N(S(=O)(=O)c2ccc(C)cc2)[C@H]1c1ccc(OC)cc1
**Result** 3.07

Alright, here's another compound for you.
**Query** Return composite z-score (reported value) for this compound: CN1C(=O)C2C=CC(C(O)c3cccs3)N(N(c3ccccc3)c3ccccc3)C2C1=O (stereo not given)
**Result** 2.62
